Biological target: T1, human CD33 (human, UniProt P20138 18-259, limits assumed)
T1 construct: Human CD33 immobilized on the BLI sensor tip or the BIAcore C1 chip; also called Siglec-3
T1 sequence (P20138 18-259 limits assumed): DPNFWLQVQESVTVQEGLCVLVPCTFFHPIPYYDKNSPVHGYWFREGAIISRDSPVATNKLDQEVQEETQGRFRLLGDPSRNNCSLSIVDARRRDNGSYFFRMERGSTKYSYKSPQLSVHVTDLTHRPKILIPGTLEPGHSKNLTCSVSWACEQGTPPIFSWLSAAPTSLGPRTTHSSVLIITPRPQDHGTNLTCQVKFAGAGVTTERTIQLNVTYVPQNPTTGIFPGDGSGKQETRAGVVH
Assay: BLI (ForteBio), Fab; column looks row-shifted against KD
Method: The affinities (KD) of the humanized antibodies for human CD33 were measured for each antibody by BioLayer Interferometry in a ForteBio assay according to standard techniques (Estep et al. (2013) MAbs 5(2): 270-8). […] The assay was carried out at room temperature. The affinities of AB-H14 and its affinity-matured variants (Table 15) and AB-H63 and its affinity-matured variants (Table 16), for human CD33 were measured by Fortebio assay according to the method described in Example 1 above.
Everything with koff lower than 0.0006 s⁻¹ is no (0); everything else, including exactly 0.0006 s⁻¹, is yes (1).

- AB-63.13 (antibody, V domains shown) VH: QVQLVQSGAEVKKPGASVKVSCKASGYTFTDYNLHWVRQAPGQGLEWIGFIYPSNGIRGYAQKFQGRVTMTVDTSTSTVYMELSSLRSEDTAVYYCARSDVDYFDYWGQGTLVTVSS VL: DIVLTQSPDSLAVSLGERATINCRASQSVSTSTYSYMHWYQQKPGQPPKLLIKYASNLESGVPDRFSGSGSGTDFTLTISSLQAEDVAVYYCQHSEEIPLTFGQGTKLEIK: no (0)
- AB-63.14 (antibody, V domains shown) VH: QVQLVQSGAEVKKPGSSVKVSCKASGYTFTDYNLHWVRQAPGQGLEWIGFIYPSNGITGYAQKFQGRVTMTVDTSTSTVYMELSSLRSEDTAVYYCARSDVDYFDYWGQGTLVTVSS VL: DIVLTQSPDSLAVSLGERATIDCKASQDVSTSTYSYMHWYQQKPGQPPKLLIKYASNLESGVPDRFSGSGSGTDFTLTISSLQAEDVAVYYCQHSWEIPLTFGQGTKLEIK: no (0)
- AB-63.7 (antibody, V domains shown) VH: QVQLVQSGAEVKKPGASVKVSCKASGYTFTDYNLHWVRQAPGQGLEWIGFIYPSNGITGYAQKFQGRVTMTVDTSTSTVYMELSSLRSEDTAVYYCARSTVDYFDYWGQGTLVTVSS VL: DIVLTQSPDSLAVSLGERATINCRASQDVSTSTYSYMHWYQQKPGQPPKLLIKYAFNLESGVPDRFSGSGSGTDFTLTISSLQAEDVAVYYCQHSWEIPLEFGQGTKLEIK: no (0)
- AB-63.4 (antibody, V domains shown) VH: QVQLVQSGAEVKKPGASVKVSCKASGYTFTDYNYHWVRQAPGQGLEWIGFIYPSNGITGYAQKFQGRVTMTVDTSTSTVYMELSSLRSEDTAVYYCARSTVDYFDYWGQGTLVTVSS VL: DIVLTQSPDSLAVSLGERATINCRASQSVSTSTYSYMHWYQQKPGQPPKLLIKYASNLESGVPDRFSGSGSGTDFTLTISSLQAEDVAVYYCQHSWEIPLTFGQGTKLEIK: yes (1)
- AB-63.10 (antibody, V domains shown) VH: QVQLVQSGAEVKKPGASVKVSCKASGYTETDYNLHWVRQAPGQGLEWIGFIYPSNGITGYAQKFQGRVTMTVDTSTSTVYMELSSLRSEDTAVYYCARSDVDYFDYWGQGTLVTVSS VL: DIVLTQSPDSLAVSLGERATINCRASQDVSTSTYSYMHWYQQKPGQPPKLLIKYASNLESGVPDRFSGSGSGTDFTLTISSLQAEDVAVYYCQHSWELPLTFGQGTKLEIK: no (0)

Where do the numbers come from? From patent US20190040131A1.
